molecular target: D2-like receptor (Rattus norvegicus); assay: Competitive radioreceptor binding, [3H]-NMS, rat striatal membranes; conditions: read-out: K0.5, rat striatum, value in μM
Sequence (P61169 whole entry): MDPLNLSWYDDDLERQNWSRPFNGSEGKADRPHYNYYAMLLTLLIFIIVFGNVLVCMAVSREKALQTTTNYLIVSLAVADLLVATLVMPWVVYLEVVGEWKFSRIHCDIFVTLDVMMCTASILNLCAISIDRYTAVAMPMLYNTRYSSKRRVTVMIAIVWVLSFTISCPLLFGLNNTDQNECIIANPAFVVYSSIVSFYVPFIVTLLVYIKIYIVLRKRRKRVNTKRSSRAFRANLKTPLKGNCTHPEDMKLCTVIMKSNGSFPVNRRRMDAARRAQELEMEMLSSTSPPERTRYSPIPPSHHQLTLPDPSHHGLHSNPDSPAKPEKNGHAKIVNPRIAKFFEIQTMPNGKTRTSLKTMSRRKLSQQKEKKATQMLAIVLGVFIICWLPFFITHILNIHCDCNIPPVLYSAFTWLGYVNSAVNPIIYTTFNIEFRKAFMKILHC

- compound: "Cc1cccc(C2CNCCc3c2cc(O)c(O)c3Cl)c1 (stereo not shown) [desmethylSKF]"
  Ki: "> 1 µM"

* * *

target: D1-like receptor (Rattus norvegicus, UniProt P18901); test: Competitive radioreceptor binding, [3H]-SCH23390, rat striatal membranes; settings: read-out: K0.5; D1-like, rat striatum; mean ± SEM
Sequence (P18901 whole entry): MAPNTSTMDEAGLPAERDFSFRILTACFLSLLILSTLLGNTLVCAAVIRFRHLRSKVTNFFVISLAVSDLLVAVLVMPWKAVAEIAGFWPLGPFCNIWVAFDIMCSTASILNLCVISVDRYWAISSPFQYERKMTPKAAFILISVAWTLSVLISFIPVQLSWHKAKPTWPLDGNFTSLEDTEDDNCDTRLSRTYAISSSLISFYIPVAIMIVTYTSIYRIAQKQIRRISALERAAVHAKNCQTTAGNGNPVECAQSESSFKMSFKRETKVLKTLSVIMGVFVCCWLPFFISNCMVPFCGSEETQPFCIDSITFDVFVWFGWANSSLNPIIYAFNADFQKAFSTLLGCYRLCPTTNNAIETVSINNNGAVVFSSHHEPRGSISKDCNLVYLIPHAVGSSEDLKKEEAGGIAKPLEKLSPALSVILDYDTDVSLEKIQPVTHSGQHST
pKi: −log10 of the molar value.
endpointName: pKi

- compound: "Cc1cccc(C2CNCCc3c2cc(O)c(O)c3Cl)c1 (stereo not shown) [desmethylSKF]"
  endpointName: "pKi"
  resultNumber: 8.40
